# Tested on: 653999-131-R-J2-PDC complex spheroids, growth % test/control
# experiment-description: Anticancer human tumor 653999-131-R-J2-PDC patient-derived lung adenocarcinoma cell line growth inhibition [AhR]
# stated-conditions: curve of first compound; second compound 10 µM
pIC50: −log10 of the molar value.
assay-endpoint: pIC50

a: Nc1ccn(C2OC(CO)C(O)C2(F)F)c(=O)n1 (stereo unspecified) + Cc1ccccc1N=Nc1ccc(NC(=O)c2ccnn2C)c(C)c1
b: COc1ccc([C@@H](O)c2cc(-c3ncnc4cc(N5CCOCC5)ccc34)c(F)cc2Cl)nn1 + CC(CO)NC(=O)c1cc(-c2ccc(Cl)cc2)nn(-c2cnn(C)c2)c1=O
Input line: Select one: a or b . Criterion: greater recorded pIC50. Please identify the chosen entry by its label.
Output line: a

---

# Test system: 653999-131-R-J2-PDC complex spheroids, growth % test/control
# experiment-description: Anticancer human tumor 653999-131-R-J2-PDC cell line growth inhibition [AhR];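 further: spheroids exposed to agents for seven days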;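 on viability, T/C: 100% = DMSO vehicle control viability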
# stated-conditions: second compound 0.1 µM; first compound 0.000949 µM; stronger effect = lower value
# From the text: Multicellular complex tumor spheroid response to aryl hydrocarbon receptor antagonists in combination with a variety of drugs and investigational agents in selected tumor cell lines […] Compounds. […] If the clinical Cmax for an agent had not been determined, the highest concentration tested was 10 microM (Table 1). […]
Some compounds, each annotated with its measured viability, T/C.
// units = %; emit number, no label

Worked cases, answers included:
> print(dat)
                                   compound                              assay.target  assay.endpoint  unit.text  measurement
1  CC(C)CC(NC(=O)C(Cc1ccccc1)NC(=O)c1cnccn1)B(O)O (stereo not drawn) + CC(CO)NC(=O)c1cc(-c2ccc(Cl)cc2)nn(-c2cnn(C)c2)c1=O  653999-131-R-J2-PDC complex spheroids, growth % test/control  viability, T/C          %          108
2  Nc1ncn(C2CC(O)C(CO)S2)c(=O)n1 (stereo not drawn) + Cc1cncc(-c2nc(NCCc3c[nH]c4ccccc34)c3ncn(C(C)C)c3n2)c1  653999-131-R-J2-PDC complex spheroids, growth % test/control  viability, T/C          %          106

Moving on to another compound below.
Input line: Answer with the recorded viability, T/C of Nc1ncn(C2CC(O)C(CO)S2)c(=O)n1 (stereo not drawn) + Cc1ccccc1N=Nc1ccc(NC(=O)c2ccnn2C)c(C)c1 only.
Output line: 96.4

---

# System: 653999-131-R-J2-PDC complex spheroids, growth % test/control
# experiment-description: Anticancer human tumor 653999-131-R-J2-PDC cell line growth inhibition [AhR];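 further: spheroids exposed to agents for seven days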;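 on viability, T/C: 100% = DMSO vehicle control viability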
# stated-conditions: second compound 10 µM; first compound 3.16 µM; stronger effect = lower value
# Excerpt: Multicellular complex tumor spheroid response to aryl hydrocarbon receptor antagonists in combination with a variety of drugs and investigational agents in selected tumor cell lines […] Compounds. […] If the clinical Cmax for an agent had not been determined, the highest concentration tested was 10 microM (Table 1). […]
Some compounds, each annotated with its measured viability, T/C.
// units = %; emit number, no label

Worked cases, answers included:
compound	viability, T/C (%)
O=C(c1cc(Cc2n[nH]c(=O)c3ccccc23)ccc1F)N1CCN(C(=O)C2CC2)CC1 + CC(CO)NC(=O)c1cc(-c2ccc(Cl)cc2)nn(-c2cnn(C)c2)c1=O	76.3
NS(=O)(=O)OCC1CC(n2ccc3c(NC4CCc5ccccc54)ncnc32)CC1O (stereo not drawn) + Cc1cncc(-c2nc(NCCc3c[nH]c4ccccc34)c3ncn(C(C)C)c3n2)c1	18.5

Moving on to another compound below.
Input line: Answer with the recorded viability, T/C of CC(C)c1c(-c2ccccc2)nc2c(C#N)c[nH]n2c1=O + Cc1cncc(-c2nc(NCCc3c[nH]c4ccccc34)c3ncn(C(C)C)c3n2)c1 only.
Output line: 62.2

---

# System: 653999-131-R-J2-PDC complex spheroids, growth % test/control
# experiment-description: Anticancer human tumor 653999-131-R-J2-PDC cell line growth inhibition [AhR];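 further: spheroids exposed to agents for seven days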
# stated-conditions: curve of first compound; second compound 10 µM
assay-endpoint: IC50 (nM)

P: COc1ccc([C@@H](O)c2cc(-c3ncnc4cc(N5CCOCC5)ccc34)c(F)cc2Cl)nn1 + Cc1ccccc1N=Nc1ccc(NC(=O)c2ccnn2C)c(C)c1
Q: CCc1c2c(nc3ccc(O)cc13)-c1cc3c(c(=O)n1C2)COC(=O)[C@]3(O)CC + Cc1ccccc1N=Nc1ccc(NC(=O)c2ccnn2C)c(C)c1
R: COc1cccc2c1C(=O)c1c(O)c3c(c(O)c1C2=O)CC(O)(C(=O)CO)CC3OC1CC(N)C(O)C(C)O1 (stereo not given) + Cc1ccccc1N=Nc1ccc(NC(=O)c2ccnn2C)c(C)c1
Input line: Ascending by IC50, please: list the compounds accordingly. Answer with the labels in sequence, matching the requested order.
Output line: Q, R, P

---

# Tested on: 653999-131-R-J2-PDC complex spheroids, growth % test/control
# experiment-description: Anticancer human tumor 653999-131-R-J2-PDC cell line growth inhibition [AhR];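 further: spheroids exposed to agents for seven days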;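 on viability, T/C: 100% = DMSO vehicle control viability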
# stated-conditions: second compound 10 µM; first compound 0.0316 µM; stronger effect = lower value
assay-endpoint: viability, T/C (%)
// units = %; emit number, no label

> print(dat)
                                   compound  assay.endpoint  measurement
1  O=C(C=Cc1cccc(S(=O)(=O)Nc2ccccc2)c1)NO + CC(CO)NC(=O)c1cc(-c2ccc(Cl)cc2)nn(-c2cnn(C)c2)c1=O  viability, T/C          107
2  O=C(C=Cc1cccc(S(=O)(=O)Nc2ccccc2)c1)NO + Cc1cncc(-c2nc(NCCc3c[nH]c4ccccc34)c3ncn(C(C)C)c3n2)c1  viability, T/C         54.7
3  O=C(C=Cc1cccc(S(=O)(=O)Nc2ccccc2)c1)NO + Cc1ccccc1N=Nc1ccc(NC(=O)c2ccnn2C)c(C)c1  viability, T/C         82.6

Moving on to another compound below.
Input line: Answer with the recorded viability, T/C of Nc1ncn(C2CC(O)C(CO)O2)c(=O)n1 (centres undefined) + CC(CO)NC(=O)c1cc(-c2ccc(Cl)cc2)nn(-c2cnn(C)c2)c1=O only.
Output line: 109

---

Some compounds, each annotated with its measured viability, T/C.
# Tested on: 653999-131-R-J2-PDC complex spheroids, growth % test/control
# experiment-description: Anticancer human tumor 653999-131-R-J2-PDC cell line growth inhibition [AhR];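 further: spheroids exposed to agents for seven days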;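 on viability, T/C: 100% = DMSO vehicle control viability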
# stated-conditions: second compound 10 µM; first compound 0.316 µM; stronger effect = lower value
// units = %; emit number, no label

Worked cases, answers included:
compound	assay-endpoint	measurement
Nc1ccccc1NC(=O)c1ccc(CNC(=O)OCc2cccnc2)cc1 + CC(CO)NC(=O)c1cc(-c2ccc(Cl)cc2)nn(-c2cnn(C)c2)c1=O	viability, T/C	76.2
NS(=O)(=O)OCC1CC(n2ccc3c(NC4CCc5ccccc54)ncnc32)CC1O (centres undefined) + CC(CO)NC(=O)c1cc(-c2ccc(Cl)cc2)nn(-c2cnn(C)c2)c1=O	viability, T/C	93.5
Nc1ccccc1NC(=O)c1ccc(CNC(=O)OCc2cccnc2)cc1 + Cc1ccccc1N=Nc1ccc(NC(=O)c2ccnn2C)c(C)c1	viability, T/C	71.4
COc1cc(Nc2ncc3c(n2)-c2ccc(Cl)cc2C(c2c(F)cccc2OC)=NC3)ccc1C(=O)O + CC(CO)NC(=O)c1cc(-c2ccc(Cl)cc2)nn(-c2cnn(C)c2)c1=O	viability, T/C	78.4
Nc1ncn(C2CC(O)C(CO)O2)c(=O)n1 (centres undefined) + Cc1ccccc1N=Nc1ccc(NC(=O)c2ccnn2C)c(C)c1	viability, T/C	77.5
COc1cc(C2c3cc4c(cc3C(OC3OC5COC(C)OC5C(O)C3O)C3COC(=O)C23)OCO4)cc(OC)c1O (centres undefined) + CC(CO)NC(=O)c1cc(-c2ccc(Cl)cc2)nn(-c2cnn(C)c2)c1=O	viability, T/C	62.6

Input line: Answer with the recorded viability, T/C of CC(C)c1c(-c2ccccc2)nc2c(C#N)c[nH]n2c1=O + CC(CO)NC(=O)c1cc(-c2ccc(Cl)cc2)nn(-c2cnn(C)c2)c1=O only.
Output line: 100

Input line: Answer with the recorded viability, T/C of CC(C)c1c(-c2ccccc2)nc2c(C#N)c[nH]n2c1=O + Cc1ccccc1N=Nc1ccc(NC(=O)c2ccnn2C)c(C)c1 only.
Output line: 111

Input line: Answer with the recorded viability, T/C of CC(C)c1c(-c2ccccc2)nc2c(C#N)c[nH]n2c1=O + Cc1cncc(-c2nc(NCCc3c[nH]c4ccccc34)c3ncn(C(C)C)c3n2)c1 only.
Output line: 62.6

Input line: Answer with the recorded viability, T/C of COc1cc(Nc2ncc3c(n2)-c2ccc(Cl)cc2C(c2c(F)cccc2OC)=NC3)ccc1C(=O)O + Cc1ccccc1N=Nc1ccc(NC(=O)c2ccnn2C)c(C)c1 only.
Output line: 63.2

Input line: Answer with the recorded viability, T/C of CC1COCCN1c1cc(C2(S(C)(=N)=O)CC2)nc(-c2ccnc3[nH]ccc23)n1 (centres undefined) + CC(CO)NC(=O)c1cc(-c2ccc(Cl)cc2)nn(-c2cnn(C)c2)c1=O only.
Output line: 100

From: PubChem BioAssay AID1919000
